- tgt: UniProtKB P05186
- Sequence (P05186 whole entry): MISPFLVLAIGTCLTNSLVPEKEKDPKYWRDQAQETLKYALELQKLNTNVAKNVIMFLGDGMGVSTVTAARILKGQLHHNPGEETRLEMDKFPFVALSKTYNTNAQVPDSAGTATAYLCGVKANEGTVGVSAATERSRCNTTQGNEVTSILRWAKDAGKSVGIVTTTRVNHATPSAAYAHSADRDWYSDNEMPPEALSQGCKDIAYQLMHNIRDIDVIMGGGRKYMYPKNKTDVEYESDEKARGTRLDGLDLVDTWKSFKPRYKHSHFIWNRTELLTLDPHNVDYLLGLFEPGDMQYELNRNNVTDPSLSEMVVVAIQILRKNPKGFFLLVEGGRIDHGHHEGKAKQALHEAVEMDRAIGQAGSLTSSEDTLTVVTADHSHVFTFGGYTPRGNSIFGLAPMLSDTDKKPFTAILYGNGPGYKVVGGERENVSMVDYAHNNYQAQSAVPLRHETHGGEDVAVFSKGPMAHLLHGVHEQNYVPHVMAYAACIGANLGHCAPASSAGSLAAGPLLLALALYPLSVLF
- assay-summary: human TNAP enzyme inhibitors, biochemical, luminescent (AID 518)
property: IC50 (µM)

(a) CC(=N)C(C#N)C(=O)CSc1nnc(-c2ccccc2Br)[nH]1 (centres undefined)
(b) COc1ccc2c(c1)CCc1c-2n[nH]c1C(=O)O
(c) Cn1ncc2c1ncn1nc(CCc3ccccc3)nc21 [MLS000040759]
Using measured IC50, arrange the compounds from above in descending sequence. Answer with the labels in sequence, matching the requested order.
c, b, a
(c: 15.8 µM, b: 2.62 µM, a: 1.73 µM)

(a) Cc1cc(=O)oc2n[nH]c(-c3ccccc3)c12 [MLS-0013971.0001]
(b) CC1(C)CC(=O)c2c(n[nH]c2Cc2ccccc2)C1
Compare reported IC50 values for a and b . Which is lower? To answer, give the label that identifies your chosen option.
a
